- System: C. difficile toxin A (Clostridium difficile, UniProt P16154 1-2710)
- Sequence (P16154 whole entry): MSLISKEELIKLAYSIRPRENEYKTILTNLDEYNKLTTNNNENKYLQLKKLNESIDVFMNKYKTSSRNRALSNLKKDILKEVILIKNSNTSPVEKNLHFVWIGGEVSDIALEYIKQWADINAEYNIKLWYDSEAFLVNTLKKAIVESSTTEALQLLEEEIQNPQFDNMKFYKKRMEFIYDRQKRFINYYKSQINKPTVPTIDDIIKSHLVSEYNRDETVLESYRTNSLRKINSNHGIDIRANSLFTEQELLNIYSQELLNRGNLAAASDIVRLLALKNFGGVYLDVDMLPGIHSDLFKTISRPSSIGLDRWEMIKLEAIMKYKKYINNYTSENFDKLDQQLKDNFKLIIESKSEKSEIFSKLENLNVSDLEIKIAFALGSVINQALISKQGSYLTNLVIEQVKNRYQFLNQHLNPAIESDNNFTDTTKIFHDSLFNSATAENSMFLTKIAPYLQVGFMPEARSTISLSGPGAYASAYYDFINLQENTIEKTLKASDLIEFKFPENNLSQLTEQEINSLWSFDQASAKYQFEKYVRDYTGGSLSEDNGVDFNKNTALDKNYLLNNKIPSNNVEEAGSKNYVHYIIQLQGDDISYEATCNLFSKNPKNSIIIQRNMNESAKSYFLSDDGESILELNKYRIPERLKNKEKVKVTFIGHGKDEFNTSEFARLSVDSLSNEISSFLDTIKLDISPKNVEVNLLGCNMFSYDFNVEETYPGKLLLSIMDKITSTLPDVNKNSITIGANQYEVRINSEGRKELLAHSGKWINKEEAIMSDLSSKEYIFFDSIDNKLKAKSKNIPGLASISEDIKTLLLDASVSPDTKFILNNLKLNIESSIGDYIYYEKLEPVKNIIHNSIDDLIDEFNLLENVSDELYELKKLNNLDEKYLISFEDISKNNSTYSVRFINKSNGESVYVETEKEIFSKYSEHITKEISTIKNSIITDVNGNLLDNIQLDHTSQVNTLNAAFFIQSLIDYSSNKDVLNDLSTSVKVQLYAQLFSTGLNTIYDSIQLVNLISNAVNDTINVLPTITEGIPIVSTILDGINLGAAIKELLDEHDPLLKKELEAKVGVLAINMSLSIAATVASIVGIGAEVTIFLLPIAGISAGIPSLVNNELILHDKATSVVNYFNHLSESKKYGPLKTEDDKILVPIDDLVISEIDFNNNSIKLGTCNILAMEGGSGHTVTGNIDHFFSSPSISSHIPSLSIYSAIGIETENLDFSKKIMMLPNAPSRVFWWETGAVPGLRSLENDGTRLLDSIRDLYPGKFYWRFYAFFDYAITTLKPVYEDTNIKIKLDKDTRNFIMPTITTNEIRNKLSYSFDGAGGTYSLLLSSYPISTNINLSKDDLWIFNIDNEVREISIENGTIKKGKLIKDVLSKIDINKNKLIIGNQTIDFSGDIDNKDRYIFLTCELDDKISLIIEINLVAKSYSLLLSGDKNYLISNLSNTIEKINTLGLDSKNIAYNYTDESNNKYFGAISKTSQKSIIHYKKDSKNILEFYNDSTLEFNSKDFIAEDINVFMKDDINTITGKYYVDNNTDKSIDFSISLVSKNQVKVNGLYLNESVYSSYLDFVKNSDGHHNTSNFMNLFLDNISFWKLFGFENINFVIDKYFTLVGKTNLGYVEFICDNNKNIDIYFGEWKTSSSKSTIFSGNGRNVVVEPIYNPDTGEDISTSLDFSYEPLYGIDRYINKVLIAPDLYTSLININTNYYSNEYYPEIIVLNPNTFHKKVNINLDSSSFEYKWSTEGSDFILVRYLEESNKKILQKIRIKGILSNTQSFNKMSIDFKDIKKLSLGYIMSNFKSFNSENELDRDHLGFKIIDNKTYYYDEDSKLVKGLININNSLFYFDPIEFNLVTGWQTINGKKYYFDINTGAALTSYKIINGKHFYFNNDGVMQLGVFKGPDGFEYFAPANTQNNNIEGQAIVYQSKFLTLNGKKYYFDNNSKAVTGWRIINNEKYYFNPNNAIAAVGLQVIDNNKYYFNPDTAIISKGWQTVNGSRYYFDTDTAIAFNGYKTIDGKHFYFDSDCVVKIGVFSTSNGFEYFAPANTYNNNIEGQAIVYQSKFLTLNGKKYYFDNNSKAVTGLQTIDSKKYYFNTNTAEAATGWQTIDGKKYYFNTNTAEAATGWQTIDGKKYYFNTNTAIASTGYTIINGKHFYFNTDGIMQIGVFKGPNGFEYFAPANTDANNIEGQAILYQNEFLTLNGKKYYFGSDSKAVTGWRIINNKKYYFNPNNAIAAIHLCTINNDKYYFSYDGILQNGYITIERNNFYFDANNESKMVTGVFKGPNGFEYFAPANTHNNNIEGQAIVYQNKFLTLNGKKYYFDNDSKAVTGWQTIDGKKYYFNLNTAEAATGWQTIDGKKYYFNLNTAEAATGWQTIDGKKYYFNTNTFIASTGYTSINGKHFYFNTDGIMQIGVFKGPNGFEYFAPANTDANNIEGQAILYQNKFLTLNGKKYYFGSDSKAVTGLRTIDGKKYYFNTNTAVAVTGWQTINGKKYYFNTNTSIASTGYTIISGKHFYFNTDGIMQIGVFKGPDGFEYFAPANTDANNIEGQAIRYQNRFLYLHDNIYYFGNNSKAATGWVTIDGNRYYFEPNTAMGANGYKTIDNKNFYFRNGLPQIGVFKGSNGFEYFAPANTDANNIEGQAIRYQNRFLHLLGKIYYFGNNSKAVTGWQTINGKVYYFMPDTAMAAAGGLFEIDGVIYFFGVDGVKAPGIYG
- Procedure Summary: cell-based or functional assay
Readout Name: EC50 TcdA [RLU], toxin neutralization assay (TNA) on IMR90 cells

Worked set:
- Binder: "hCDIFA-39 (antibody, V domains shown) VH: QVQLQESGPGLVKPSETLSLTCTLSGGSISSDNYYWGWVRQPPGKGLEWIGSIYYSGSTYYNPSLKSRVFISVDMSKNQFSLKLSSVTAADTAVYYCARHTQGLGILRYFDWWTRPFDYWGQGTLVTVSS VL: DIQMTQSPSSLSASVGDRVTITCRASQNINTYLSWYRQKPGKAPELLIYAASNLQSGVPSRFSGSGSGTDFTLTIHSLQPEDFATYYCQQSYTTLTFGGGTKVEIKR"
  Observed Value: "400 RLU"
- Binder: "hCDIFA-46 (antibody, V domains shown) VH: EVQLVESGGGLVQPGGSLRLSCAASGFTVSRNYMTWVRQAPGKGLEWVSVIYSGGSTYHADSVKGRFTISRDNSKNTLNLQMSSLRAEDTAVYYCARPCPGSSISCDYNMDVWGQGTTVTVSS VL: QAVVTQPASVSGSPGQSITISCTGTSSDVGGYNYVSWYQQHPGKAPKLIIYEVSNRPSGVSNRFSGSKSGNTASLTISGLQAEDEADYYCTSYTSSSMIDVFGTGTKLTVLG"
  Observed Value: "1490 RLU"
- Binder: "hCDIFA-7 (antibody, V domains shown) VH: QVQLRESGPGLVKPSETLSLTCTVSGGSVSNYYWSWIRQPPGKGLEWIGYIYSSGTINFNPSLKGRVTISGDTSKNQFSLKLSSVTAADTAVYYCARSGKWALGAFDIWGQGTMVTVSS VL: QSALTQPPSVSGAPGQRVTISCTGSSSNIGTGYDVHWYQQLPGKVPKLLIHGNGDRPSGVPDRFSASKSGTSASLAITGLQSEDEGDYYCQSYDNSLSGLVVFGGGTKLTVLG"
  Observed Value: "13300 RLU"
- Binder: "hCDIFA-3 (antibody, V domains shown) VH: EVQLVESGGGVVQPGRSLRLSCAASGFTFSSYAMHWVRQAPGKGLEWVAVISKDGDNKYYTDPLKGRFTISRDNSKNTLYLQMISLRGEDTAVYYCARDLNIWSGYYLRTINYYMDVWGKGTTVTVSS VL: DIVMTQSPSFLSASVGDRVTITCRASQGIRNDLGWYQQKPGKAPKLLIYAASTLQSGVPSRFSGSGSGTEFTLTISSLQPEDFATYYCQQPGSHPPFGGGAKLEIKR"
  Observed Value: "199000 RLU"
- Binder: "hCDIFA-45 (antibody, V domains shown) VH: QVQLVQSGPEVRKPGTSVKFSCKASGFTFTSAAMQWVRQARGQRLEWIGWIVVDSGNTNYAQKFQERVTITRDMSTSTVYMELSSLRSEDTAMYYCAASRGIVGTRGLFDSWGQGTLVTVSS VL: EIVLTQSPSSLSSSVGDRVTITCRASQSIRNYLNWYQQKPGKAPKLLIYGASSLQSGVPPRFSGSGFGTDFTLTISNLQPEDFASYSCQQTYSTPLTFGGGTKLEIKR"
  Observed Value: "1490 RLU"

**Q:** Return reported EC50 TcdA [RLU], toxin neutralization assay (TNA) on IMR90 cells; argument: hCDIFA-11 (antibody, V domains shown) VH: QVQLVQSATEMKKPGASVKVSCKASGYTFSDSYMHWVRQAPGQGLEWMGWINPDSGGTNYAQKFKGWVTMTRDTSINTVYMELRRLRSDDTAVYYCARDGGDYARHSLDYWGQGTLVTVSS VL: DVVMTQSPGTLSLSPGERVTLSCRASQSVNSDYLVWYQQKPGQAPRLLIYGASSRATGIPDRFSGSGSGPDFTLTISRLEPEDVAVYYCQLYGGLFTFGQGTRLEIKR
**A:** 60 RLU

**Q:** Entry to check: hCDIFA-54 (antibody, V domains shown) VH: QVQLVESGAEVKKPGASVKVSCKASGYTFTSYDINWVRQATGQGLEWMGWMNPNSGNTGYAQKFQGRVTMTRNTSISTAYMELSSLRSEDTAVYYCARGGPNSGSFSHWFDPWGQGTLVTVSS VL: QAVVTQPPSASASLGASVTLTCTLSSGYSNYKVDWYQQRPGKGPRFVMRVGTGGIVGSKGDGIPDRFSVLGSGLNRYLTIKNIQEDDESDYHCGADHGSGSNFAVVFGGGTKLTVLG
**A:** 1490 RLU

**Q:** Entry to check: hCDIFA-22 (antibody, V domains shown) VH: QVQLVQSGGGLVQPGGSLRLSCSASGFTFSSYAMHWVRQAPGKGLEYVSAISSNGGSTYYADSVKGRFTISRDNSKNTLYLQMSSLRAEDTAVYYCVRAAAGNWFDPWGQGTLVTVSS VL: AIRMTQSPSSVSASVGDRVTITCRASQGISSWLAWYQQKPGKAPKLLIYAASSLQSGVPSRFSGSGSGTDFTLTISSLQPEDFATYYCQQANSFPLTFGGGTKVDIKR
**A:** ~16 RLU

**Q:** Entry to check: hCDIFA-5 (antibody, V domains shown) VH: EVQLVESGPGLVKPSETLSLTCAVSGGSISGYYWSWIRQPPGKGLEWIAYIYDSGSTSHNPSLKSRVTTSVDTSKNQFSLKLNSVTAADTAVYYCARSGKWALGAFDMWGQGTMVTVSS VL: QSALTQPPSVSGAPGQRVTISCTGSSSNIGAGYDVHWYQQLPGTAPKLLISGNNNRPSGVPDRFSGSKSGTSASLAITGLQAEDEADYYCQSYDNDLSGLVVFGGGTKLTVLG
**A:** 1450 RLU

**Q:** Entry to check: hCDIFA-1 (antibody, V domains shown) VH: QLQLQESGPGLVKPSETLSLICTVSGGSFSSSDFYWGWIRQPPGKGLEWIGNFYYNGSTSYNPSLKSRVTISVDTSKNQFSLKLRSVTAADTAVYYCARDYNFWNNSPNWFDPWGQGTLVTVSS VL: EIVMTQSPATLSVSPGERATLSCRASQSISSNLAWYQQKLGQAPRLLIHGASTRATGIPARFSGSGSGTQFTLTISSLQSEDFAVYFCQQYNNWPPTFGGGTKVDIKR
**A:** 5760 RLU
